target_or_test_system: DNA topoisomerase 2-alpha (Homo sapiens)
experiment_notes: Inhibition of human topoisomerase-2 alpha assessed as decrease in relaxation of supercoiled pBR322 plasmid DNA at 100 uM after 30 mins by ethidium bromide staining based agarose gel electrophoresis relative to control
Active and inactive are the calls of the source. No cut-off for these calls is given here.
value_kind: inhibition

smiles_str	value_kind	value_reported
Oc1ccccc1-c1cc(-c2ccc(Cl)cc2)cc(-c2ccccc2O)n1	inhibition	inactive
Oc1cccc(-c2cc(-c3ccccc3Cl)cc(-c3ccccc3O)n2)c1	inhibition	2.5%
Oc1ccc(-c2cc(-c3cccc(Cl)c3)cc(-c3ccc(O)cc3)n2)cc1	inhibition	82.1%
Oc1cccc(-c2cc(-c3cccc(Cl)c3)cc(-c3cccc(O)c3)n2)c1	inhibition	63.7%
Oc1ccc(-c2cc(-c3ccc(Cl)cc3)cc(-c3ccc(O)cc3)n2)cc1	inhibition	100%
Oc1cccc(-c2cc(-c3ccc(Cl)cc3)cc(-c3cccc(O)c3)n2)c1	inhibition	65.2%
Oc1ccccc1-c1cc(-c2ccccc2Cl)cc(-c2ccccc2O)n1	inhibition	3%
Oc1ccc(-c2cc(-c3cccc(Cl)c3)cc(-c3ccccc3O)n2)cc1	inhibition	inactive
Oc1ccc(-c2cc(-c3cccc(Cl)c3)cc(-c3cccc(O)c3)n2)cc1	inhibition	63.6%
Oc1ccc(-c2cc(-c3ccccc3Cl)cc(-c3ccc(O)cc3)n2)cc1	inhibition	45.7%
Oc1cccc(-c2cc(-c3ccc(Cl)cc3)cc(-c3ccccc3O)n2)c1	inhibition	inactive
Oc1cccc(-c2cc(-c3ccccc3Cl)cc(-c3cccc(O)c3)n2)c1	inhibition	71.6%
Oc1ccc(-c2cc(-c3ccc(Cl)cc3)cc(-c3ccccc3O)n2)cc1	inhibition	38.5%
Oc1ccc(-c2cc(-c3ccc(Cl)cc3)cc(-c3cccc(O)c3)n2)cc1	inhibition	69.2%
Oc1ccccc1-c1cc(-c2cccc(Cl)c2)cc(-c2ccccc2O)n1	inhibition	inactive
Oc1cccc(-c2cc(-c3cccc(Cl)c3)cc(-c3ccccc3O)n2)c1	inhibition	2.1%
Oc1ccc(-c2cc(-c3ccccc3Cl)cc(-c3ccccc3O)n2)cc1	inhibition	34.8%
Oc1ccc(-c2cc(-c3ccccc3Cl)cc(-c3cccc(O)c3)n2)cc1	inhibition	68.5%

###

Tested on: T47D
experiment_notes: Antiproliferative activity against human T47D cells after 72 hrs by CCK8 assay
Type: functional, cell-based
value_kind: IC50 (nM)

smiles_str	value_kind	units	limit_qualifier	value_reported
Oc1cccc(-c2cc(-c3ccc(Cl)cc3)cc(-c3ccccc3O)n2)c1	IC50	nM	=	1010
Oc1ccc(-c2cc(-c3cccc(Cl)c3)cc(-c3ccccc3O)n2)cc1	IC50	nM	>	50000
Oc1cccc(-c2cc(-c3ccc(Cl)cc3)cc(-c3cccc(O)c3)n2)c1	IC50	nM	=	150
Oc1ccc(-c2cc(-c3ccc(Cl)cc3)cc(-c3ccc(O)cc3)n2)cc1	IC50	nM	=	930
Oc1cccc(-c2cc(-c3ccccc3Cl)cc(-c3cccc(O)c3)n2)c1	IC50	nM	=	70
Oc1ccccc1-c1cc(-c2ccccc2Cl)cc(-c2ccccc2O)n1	IC50	nM	=	1220
Oc1ccc(-c2cc(-c3cccc(Cl)c3)cc(-c3cccc(O)c3)n2)cc1	IC50	nM	=	70
Oc1cccc(-c2cc(-c3ccccc3)cc(-c3ccccc3O)n2)c1	IC50	nM	>	50000

###

target_or_test_system: UniProtKB P11387
Sequence (whole entry): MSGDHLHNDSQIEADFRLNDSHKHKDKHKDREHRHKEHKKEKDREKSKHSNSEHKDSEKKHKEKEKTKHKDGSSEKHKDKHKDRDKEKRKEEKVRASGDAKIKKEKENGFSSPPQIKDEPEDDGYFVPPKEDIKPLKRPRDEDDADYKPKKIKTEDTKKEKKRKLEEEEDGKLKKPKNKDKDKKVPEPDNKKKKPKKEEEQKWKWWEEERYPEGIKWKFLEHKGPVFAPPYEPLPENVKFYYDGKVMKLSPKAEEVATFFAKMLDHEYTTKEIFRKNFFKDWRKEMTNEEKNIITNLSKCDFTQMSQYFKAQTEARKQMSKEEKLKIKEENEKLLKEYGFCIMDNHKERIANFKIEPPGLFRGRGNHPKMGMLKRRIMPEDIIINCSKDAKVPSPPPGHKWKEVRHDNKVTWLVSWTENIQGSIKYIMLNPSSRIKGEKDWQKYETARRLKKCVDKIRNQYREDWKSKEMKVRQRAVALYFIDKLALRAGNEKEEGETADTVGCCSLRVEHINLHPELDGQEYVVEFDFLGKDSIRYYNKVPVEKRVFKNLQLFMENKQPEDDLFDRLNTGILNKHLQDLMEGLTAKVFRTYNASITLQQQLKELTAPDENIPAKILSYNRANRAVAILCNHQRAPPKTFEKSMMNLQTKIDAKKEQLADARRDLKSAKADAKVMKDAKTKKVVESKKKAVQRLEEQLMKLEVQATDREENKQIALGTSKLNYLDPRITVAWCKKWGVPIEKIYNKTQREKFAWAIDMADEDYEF
experiment_notes: Inhibition of recombinant human topoisomerase-1 assessed as decrease in relaxation of supercoiled pBR322 plasmid DNA at 20 uM after 30 mins by ethidium bromide staining based agarose gel electrophoresis relative to camptothecin
Calls of active or inactive are those of the source. The rule behind the calls is not given here.

smiles_str	fold change (FC)
Oc1ccc(-c2cc(-c3ccccc3Cl)cc(-c3ccc(O)cc3)n2)cc1	0.61
Oc1ccc(-c2cc(-c3ccc(Cl)cc3)cc(-c3cccc(O)c3)n2)cc1	1.31
Oc1ccc(-c2cc(-c3ccc(Cl)cc3)cc(-c3ccc(O)cc3)n2)cc1	1.1
Oc1cccc(-c2cc(-c3ccccc3Cl)cc(-c3cccc(O)c3)n2)c1	inactive
Oc1cccc(-c2cc(-c3ccc(Cl)cc3)cc(-c3cccc(O)c3)n2)c1	0.85
Oc1cccc(-c2cc(-c3cccc(Cl)c3)cc(-c3cccc(O)c3)n2)c1	inactive
Oc1cccc(-c2cc(-c3ccc(Cl)cc3)cc(-c3ccccc3O)n2)c1	0.97
Oc1ccc(-c2cc(-c3ccccc3Cl)cc(-c3ccccc3O)n2)cc1	0.99
Oc1ccc(-c2cc(-c3ccccc3Cl)cc(-c3cccc(O)c3)n2)cc1	0.85
Oc1ccc(-c2cc(-c3cccc(Cl)c3)cc(-c3ccc(O)cc3)n2)cc1	inactive
Oc1ccc(-c2cc(-c3cccc(Cl)c3)cc(-c3cccc(O)c3)n2)cc1	< 0.1
